system: Plasmodium falciparum NF54-HGL (transmission to Anopheles stephensi); experiment: percentage of barcode signal found in uninfected mosquitoes (transmission-blocking activity); higher = stronger blocking of transmission to mosquito, active = 80 or more; conditions: 20 µM; gametocyte preincubation time 24 h; readout time post-feed 8 days
Please answer using one outcome listed in active, inactive

Request: Dear colleague, could you share the recorded outcome for O=C1[C@@H](Oc2ccccc2)[C@@H](c2ccc(Cl)cc2)N1CCn1cnc2c(NCc3ccccc3)ncnc21 when you have a moment?
Result: inactive

Request: Test call, this compound: CC(C)=CCC/C(C)=C\CNCCNC1C2CC3CC(C2)CC1C3 (stereo not given)
Result: active

Request: Recorded test call requested for Cn1c(=O)c2c(S(C)(=O)=O)snc2n(C)c1=O
Result: inactive

Request: Fill in: this test's call for O=C(CN1CCOCC1)Nc1ccc2ncnc(Nc3ccc(OCc4cccc(F)c4)c(Cl)c3)c2c1 is ___
Result: inactive

Request: Please let me know the test result on file for C[C@H](c1ccc2c(c1)CCCC2)N(C)c1ncc2c(N)nc(N)nc2n1 .
Result: inactive

Request: Answer briefly: the call reported for CN1CCN(c2nccc3[nH]c(-c4cccc(F)c4)cc23)CC1 in this assay.
Result: inactive

Request: Please indicate how the test categorized CCc1ccc(C(NCc2nc(N)nc(N(C)C)n2)C(C)C)cc1 (stereo not given) .
Result: inactive

Request: # outcome recorded in this test, key = c1ccc(Oc2ccc(-c3cc(CN4CCOCC4)[nH]n3)cc2)cc1
Result: inactive

Request: Please state the recorded outcome for this compound: CN1CCC(NCc2cccc(-c3ccc(S(=O)(=O)NCc4ccccc4)cc3)c2)CC1
Result: active

Request: Given CCOc1ccccc1NC(C)C(=O)Nc1cc(C(F)(F)F)ccc1N1CCOCC1 (stereo not given) , state the outcome it received in this test.
Result: inactive

----------
tested on: Plasmodium falciparum NF54-HGL (transmission to Anopheles stephensi); experiment: percentage of barcode signal found in uninfected mosquitoes (transmission-blocking activity); higher = stronger blocking of transmission to mosquito, active = 80 or more; settings: 10 µM; gametocyte preincubation time 24 h; readout time post-feed 8 days
measurement.name: percentage of barcode signal found in uninfected mosquitoes (%)
Lab book: enter the figure in %, no units written.

Request: Record request: percentage of barcode signal found in uninfected mosquitoes value, item c1ccc(-c2[nH]c3ccccc3c2C(c2ccccn2)N2CCCC2)cc1 (centres undefined)
Result: 82.6

Request: Which percentage of barcode signal found in uninfected mosquitoes value is on record for O=C(NCCc1c[nH]c2ccccc12)c1cc2ccccc2oc1=O ?
Result: -1.49

Request: Param item = COc1cccn2c(C(=O)N3CCCCC3)c(C(F)(F)F)nc12 ; retrieve measured percentage of barcode signal found in uninfected mosquitoes.
Result: 27.1

Request: Any idea what percentage of barcode signal found in uninfected mosquitoes was measured for CCOC(=O)NC(=O)c1ccsc1NC(=O)c1nc2ccccc2s1 ?
Result: -0.298

Request: Recorded percentage of barcode signal found in uninfected mosquitoes of CC1=NN(c2nc3ccccc3s2)C(=O)C1Cc1cccc2ccccc12 (centres undefined) , please.
Result: 0.165

Request: Need percentage of barcode signal found in uninfected mosquitoes of Clc1cccc(C(c2ccc(CN3CCNCC3)cc2)n2ccnc2)c1 (centres undefined) , thanks.
Result: 89.4

Request: Fill in: percentage of barcode signal found in uninfected mosquitoes of CCN(CC)CCCCCCNc1cc(OC)cc2c(C)ccnc12 is ___
Result: 55.8

Request: # get_value(readout='percentage of barcode signal found in uninfected mosquitoes', item= CCc1c(C)nc(-n2nc(C)cc2NC(=O)c2ccccc2SC)[nH]c1=O )
Result: 53.6

Request: Quick one: percentage of barcode signal found in uninfected mosquitoes for CNc1snc(C)c1C(=O)NCCOc1ccc(OC)cc1 ?
Result: 25.3

Request: Entry CC(C)(C)n1nc(-c2ccccc2)c2c(N)ncnc21 has what percentage of barcode signal found in uninfected mosquitoes?
Result: -3.29

Request: # query: percentage of barcode signal found in uninfected mosquitoes of entry OCCc1ccc(Nc2nccc(-c3nnc4ccccn34)n2)cc1
Result: 77

Request: Given the compound O=C(Nc1nc(-c2ccccn2)cs1)c1cncn1-c1ccccc1 , what is its reported percentage of barcode signal found in uninfected mosquitoes?
Result: 21.4

Request: Suppose we examine the compound O=C(NCc1ccoc1)N1CCN(Cc2ccc3c(c2)OCO3)CC1 ; what percentage of barcode signal found in uninfected mosquitoes value has been reported?
Result: 25.5

Request: Sample CC(C(=O)Nc1ccc2oc(-c3ccncc3)nc2c1)c1ccccc1 (centres undefined) — what was its percentage of barcode signal found in uninfected mosquitoes?
Result: -6.05

Request: Fill in: percentage of barcode signal found in uninfected mosquitoes of c1coc(CNc2nc(N3CCCCC3)nc3ccccc23)c1 is ___
Result: 38.7

Request: Which measured percentage of barcode signal found in uninfected mosquitoes value corresponds to O=C(NC1CC1)c1ccc(N2CCOc3ccc(Cl)cc32)s1 ?
Result: 49.7

Request: Name the reported percentage of barcode signal found in uninfected mosquitoes value associated with the compound COc1cc(C2=NCCN2)ccc1-n1cc(-c2cccc(C3=NCCN3)c2)nn1
Result: 46.2

Request: Recorded percentage of barcode signal found in uninfected mosquitoes of Clc1ccc(CCNc2cc(-c3ccccc3)nc3ncnn23)cc1 , please.
Result: -1.04

Request: # lookup: percentage of barcode signal found in uninfected mosquitoes of CN1CCN(CCCOc2ncc(Nc3ncc(-c4ccc(C(F)(F)F)c(F)c4)nc3C(N)=O)cn2)CC1
Result: 75.6

Request: If you can, please state the reported percentage of barcode signal found in uninfected mosquitoes value of CC1COC2(CCN(c3nc(=O)c4cc(C(F)(F)F)cc([N+](=O)[O-])c4s3)CC2)O1 (centres undefined) .
Result: 26.7

Request: Reported percentage of barcode signal found in uninfected mosquitoes, compound CCCn1nnc(NC(=O)COc2ccc(C3CCCCC3)cc2)n1 : ____
Result: 3.33

Request: Data request, read-out percentage of barcode signal found in uninfected mosquitoes, for CN(C)CCNC(=O)N1CCCN(c2ncnc3cc(-c4ccccc4)sc23)CC1
Result: 34.3

Request: Any idea what its percentage of barcode signal found in uninfected mosquitoes is? The compound is CC[C@@H]([C@H](C)O)n1ncn(-c2ccc(N3CCN(c4ccc(OC[C@@H]5CO[C@@](Cn6cncn6)(c6ccc(F)cc6F)C5)cc4)CC3)cc2)c1=O
Result: 42.4

Request: May I ask what percentage of barcode signal found in uninfected mosquitoes has been recorded for O=C(NC1CC1)c1ccc(N2CCC(Cc3ccccc3)CC2)nc1 ?
Result: 77.8

Request: GET /values?readout=percentage of barcode signal found in uninfected mosquitoes&item= CC1CC1C(=O)NC1CCN(CC2(c3ccccc3)CCCCC2)CC1 (centres undefined)
Result: 97.6

Request: Need percentage of barcode signal found in uninfected mosquitoes, item CC(=O)NC[C@H]1CN(c2ccc(N3CCSCC3)c(F)c2)C(=O)O1
Result: 24.7

Request: Look up percentage of barcode signal found in uninfected mosquitoes: COc1ccc(-c2nc(-c3cccc(NC(=O)Cc4ccc(F)cc4)c3)no2)cc1OC
Result: 5.39

Request: // query percentage of barcode signal found in uninfected mosquitoes value for entry COC(=O)c1ccc(F)cc1NS(=O)(=O)c1cccc(-c2cnn(Cc3ccccc3)c2)c1
Result: 31.1

Request: Given CCC(=O)Nc1ccccc1C(=O)Nc1ccccn1 , state its recorded percentage of barcode signal found in uninfected mosquitoes.
Result: 50

Request: Any idea what its percentage of barcode signal found in uninfected mosquitoes is? The compound is COc1ccc(Nc2ccccc2NC(=O)c2ccc(O)nc2)cc1
Result: 7.07

Request: // query percentage of barcode signal found in uninfected mosquitoes value for entry CCCS(=O)(=O)N1CCC(CO)(Cc2ccccc2C(F)(F)F)CC1
Result: 39.3

Request: // percentage of barcode signal found in uninfected mosquitoes lookup, key: CS(=O)(=O)Cc1nc2ccccc2oc1=O
Result: 80.3

Request: Look at this compound and give its reported percentage of barcode signal found in uninfected mosquitoes. Nc1ncc(-c2ccc(C(F)(F)F)nc2)cc1-c1ccc(C(F)(F)F)nc1
Result: 1.73

Request: Record request: percentage of barcode signal found in uninfected mosquitoes value, item Brc1cncc(-c2cc(NCCCn3ccnc3)nc(-c3ccccc3)n2)c1
Result: -0.102

Request: Value lookup for percentage of barcode signal found in uninfected mosquitoes; key = CCCNC(=O)N1CCC2(CC1)CC(=O)c1cc(C)ccc1O2
Result: 11.9

Request: // lookup percentage of barcode signal found in uninfected mosquitoes for Cc1nc(-c2cccc(NCc3ccccc3)c2)[nH]c1C
Result: 2.32

Request: Which percentage of barcode signal found in uninfected mosquitoes value is on record for CN1CCN(c2nccc3nc(-c4ccc(F)c(F)c4)[nH]c23)CC1 ?
Result: 97.2

Request: // percentage of barcode signal found in uninfected mosquitoes lookup, key: Cc1cc(C(=O)Nc2cnn(Cc3ccc(Cl)cc3Cl)c2)no1
Result: 42.7

Request: # query: percentage of barcode signal found in uninfected mosquitoes of entry Cc1cc(C)n2nc(C(=O)Nc3cc(C(F)(F)F)ccc3N3CCOCC3)nc2n1
Result: 29.6

Request: For the compound shown here, Cc1ccc(NC(=O)c2nc[nH]c2C(=O)Nc2nc3ccccc3[nH]2)c(C)c1 , give the reported percentage of barcode signal found in uninfected mosquitoes.
Result: 73.8

Request: May I ask what percentage of barcode signal found in uninfected mosquitoes has been recorded for Cc1nnc(NCc2cccc(Cl)c2)c2ccccc12 ?
Result: 34.2

Request: What does the record list as percentage of barcode signal found in uninfected mosquitoes for O=C(Nc1cccnc1)c1c(O)c2cccc3c2n(c1=O)CC3 ?
Result: 20.2

Request: Dear colleague, I am looking for the recorded percentage of barcode signal found in uninfected mosquitoes of the following compound: CO[C@@H](C(=O)N1Cc2[nH]nc(NC(=O)c3ccc(N4CCN(C)CC4)cc3)c2C1)c1ccccc1
Result: 68.7

Request: // lookup percentage of barcode signal found in uninfected mosquitoes for COc1cccc(-n2nnnc2S(=O)(=O)Cc2ccccc2)c1
Result: 90.4
